Data provenance: patent US9693556B2

- Tested on: Setaria faberi (SETFA)
- MEASUREMENT_DESCRIPTION: Post-emergence herbicidal glasshouse test on Setaria faberi
- Assay type: in vivo
- CONDITION_DESCRIPTION: post-emergence; 1000 g/h; evaluated after 13 days
REPORTED_ENDPOINT: POST Application SETFA herbicidal damage (five point scale)

STRUCTURE_SMILES | REPORTED_VALUE
COc1cc(-c2c(C(F)(F)F)ccn(-c3cnn(C)c(=O)c3O)c2=O)cc(OC)c1OC | 5 (5=80-100% damage)

Query :: Recorded POST Application SETFA herbicidal damage (five point scale) of "Cn1ncc(-c2ccc(Cl)cc2S(C)(=O)=O)c(O)c1=O" , please.
Result :: 5 (5=80-100% damage)

Query :: POST Application SETFA herbicidal damage (five point scale) for "CSc1ccn(-c2cnn(C)c(=O)c2O)c(=O)c1" ?
Result :: 5 (5=80-100% damage)

Query :: I'd like to know its POST Application SETFA herbicidal damage (five point scale). The molecule in question is "COc1ccc(-c2cnn(C)c(=O)c2O)c(Cl)c1"
Result :: 1 (1=0-19% damage)

###

- Tested on: Alopecurus myosuroides (ALOMY)
- MEASUREMENT_DESCRIPTION: Post-emergence herbicidal glasshouse test on Alopecurus myosuroides
- Type: in vivo
- CONDITION_DESCRIPTION: post-emergence; 1000 g/h; evaluated after 13 days
- Procedure: Seeds of a variety of test species are sown in standard soil in pots (Alopecurus myosuroides (ALOMY), Setaria faberi (SETFA), Echinochloa crus-galli (ECHCG), Solanum nigrum (SOLNI), Amaranthus retoflexus (AMARE), Ipomoea hederacea (IPOHE)). […] After 13 days for pre and post-emergence, the test is evaluated for the percentage herbicidal damage caused to the plant. […]
The entries below are paired with their reported POST Application ALOMY herbicidal damage (five point scale).

MOLECULE | TARGET_UNDER_TEST | REPORTED_VALUE
Cn1ncc(-c2ccc(Cl)cc2[N+](=O)[O-])c(O)c1=O | Alopecurus myosuroides (ALOMY) | 1 (1=0-19% damage)
COc1nn(C)c(=O)c(O)c1-c1ccc(C(F)(F)F)cc1S(C)(=O)=O | Alopecurus myosuroides (ALOMY) | 5 (5=80-100% damage)
Cn1ncc(-n2ccc(C(F)(F)F)c(-c3cccc(C(F)(F)F)c3)c2=O)c(O)c1=O | Alopecurus myosuroides (ALOMY) | 5 (5=80-100% damage)
Cc1c(-c2c(C#N)nn(C)c(=O)c2O)ccc(S(C)(=O)=O)c1C1=NOCC1 | Alopecurus myosuroides (ALOMY) | 2 (2=20-39% damage)
C=Cc1nn(C)c(=O)c(O)c1-c1ccc(S(C)(=O)=O)c(C2=NOCC2)c1C | Alopecurus myosuroides (ALOMY) | 4 (4=60-79% damage)

Query :: Could you tell me which POST Application ALOMY herbicidal damage (five point scale) is on file for "COc1ccc(Cn2ncc(-c3ccc(S(C)(=O)=O)c(C4=NOCC4)c3C)c(O)c2=O)cc1" ?
Result :: 1 (1=0-19% damage)

Query :: What value of POST Application ALOMY herbicidal damage (five point scale) has been recorded for this entry: "CC(C)n1ncc(-c2c(Cl)cccc2Cl)c(O)c1=O"
Result :: 2 (2=20-39% damage)

Query :: I am curious: what POST Application ALOMY herbicidal damage (five point scale) value has been reported for "Cc1cccc(-c2c(C(F)(F)F)ccn(-c3cnn(C)c(=O)c3O)c2=O)c1" ?
Result :: 4 (4=60-79% damage)

Query :: Data request, read-out POST Application ALOMY herbicidal damage (five point scale), for "CC(C)N(C)S(=O)(=O)c1ccc(-c2cnn(C)c(=O)c2O)c(S(C)(=O)=O)c1"
Result :: 4 (4=60-79% damage)

Query :: Consider the molecule "CCCn1ncc(-c2c(Cl)cccc2Cl)c(O)c1=O" and give its measured POST Application ALOMY herbicidal damage (five point scale).
Result :: 1 (1=0-19% damage)

Query :: May I ask what POST Application ALOMY herbicidal damage (five point scale) has been recorded for CC(C)[S+]([O-])c1ccccc1-c1cnn(C)c(=O)c1O (stereo not drawn) ?
Result :: 2 (2=20-39% damage)

Query :: Which POST Application ALOMY herbicidal damage (five point scale) value is on record for "Cc1ccc(F)cc1-c1c(C(F)(F)F)ccn(-c2cnn(C)c(=O)c2O)c1=O" ?
Result :: 5 (5=80-100% damage)

Query :: Would you kindly share the measured POST Application ALOMY herbicidal damage (five point scale) for "CCCCn1cc(C)cc(-c2cnn(C)c(=O)c2O)c1=O" ?
Result :: 2 (2=20-39% damage)

Query :: Record request: POST Application ALOMY herbicidal damage (five point scale) value, item "Cn1ncc(-n2ccc(C(F)(F)F)c(-c3cc(Cl)cc(Cl)c3)c2=O)c(O)c1=O"
Result :: 4 (4=60-79% damage)

Query :: Look up POST Application ALOMY herbicidal damage (five point scale): "Cn1ncc(-c2ccc(C(F)(F)F)nc2Cl)c(O)c1=O"
Result :: 1 (1=0-19% damage)

Query :: Consider the molecule "Cc1c(-c2cnn(C(C)C)c(=O)c2O)ccc(S(C)(=O)=O)c1C1=NOCC1" and give its measured POST Application ALOMY herbicidal damage (five point scale).
Result :: 5 (5=80-100% damage)

Query :: Item "COCCn1cccc(-c2cnn(C)c(=O)c2O)c1=O" has what recorded POST Application ALOMY herbicidal damage (five point scale)?
Result :: 2 (2=20-39% damage)

Query :: Please report the recorded POST Application ALOMY herbicidal damage (five point scale) for "CSc1ccc(-c2c(C(F)(F)F)ccn(-c3cnn(C)c(=O)c3O)c2=O)cc1" .
Result :: 2 (2=20-39% damage)

###

Overview of recorded POST Application ALOMY herbicidal damage (five point scale) for various molecules
- System: Alopecurus myosuroides (ALOMY)
- MEASUREMENT_DESCRIPTION: Post-emergence herbicidal glasshouse test on Alopecurus myosuroides
- Format: in vivo
- CONDITION_DESCRIPTION: post-emergence; 1000 g/h; evaluated after 13 days

Sample records with POST Application ALOMY herbicidal damage (five point scale):
MOLECULE | REPORTED_VALUE
Cn1ncc(-n2ccc(C(F)(F)F)c(-c3cccc(Cl)c3Cl)c2=O)c(O)c1=O | 3 (3=40-59% damage)
CC(C)n1ncc(-c2ccc(C(F)(F)F)cc2S(C)(=O)=O)c(O)c1=O | 5 (5=80-100% damage)
COc1nc(C(F)(F)F)ccc1-c1cnn(C)c(=O)c1O | 1 (1=0-19% damage)
Cc1cc(Cl)ccc1-c1c(C(F)(F)F)ccn(-c2cnn(C)c(=O)c2O)c1=O | 5 (5=80-100% damage)

Moving on to the next molecule.
Query :: For the molecule shown here, COCn1ncc(-c2ccccc2[S+](C)[O-])c(O)c1=O (centres unmarked) , give the reported POST Application ALOMY herbicidal damage (five point scale).
Result :: 3 (3=40-59% damage)

###

- System: Setaria faberi (SETFA)
- MEASUREMENT_DESCRIPTION: Post-emergence herbicidal glasshouse test on Setaria faberi
- Format: in vivo
- CONDITION_DESCRIPTION: post-emergence; 1000 g/h; evaluated after 13 days
Here, each record is paired with measured POST Application SETFA herbicidal damage (five point scale) data.

Take a look at these entries with their results.
MOLECULE | REPORTED_VALUE
Cc1c(-c2cnn(CC3CC3)c(=O)c2O)ccc(S(C)(=O)=O)c1C1=NOCC1 | 5 (5=80-100% damage)
Cn1ncc(-c2ccc(Cl)cc2[S+](C)[O-])c(O)c1=O (centres unmarked) | 5 (5=80-100% damage)
Cn1ncc(-c2ccc(C(F)(F)F)n(C)c2=O)c(O)c1=O | 2 (2=20-39% damage)

// next item, POST Application SETFA herbicidal damage (five point scale) requested
Query :: I am curious: what POST Application SETFA herbicidal damage (five point scale) value has been reported for "CCCn1ncc(-c2ccc(S(C)(=O)=O)c(C3=NOCC3)c2Cl)c(O)c1=O" ?
Result :: 5 (5=80-100% damage)

###

- System: Setaria faberi (SETFA)
- MEASUREMENT_DESCRIPTION: Post-emergence herbicidal glasshouse test on Setaria faberi
- Type: in vivo
- CONDITION_DESCRIPTION: post-emergence; 1000 g/h; evaluated after 13 days
REPORTED_ENDPOINT: POST Application SETFA herbicidal damage (five point scale)

STRUCTURE_SMILES | REPORTED_VALUE
Cn1ncc(-n2ccc(O)c(C#N)c2=O)c(O)c1=O | 1 (1=0-19% damage)
Cn1ncc(-c2ccc(S(=O)(=O)Cc3ccccc3)cc2S(C)(=O)=O)c(O)c1=O | 5 (5=80-100% damage)
Cc1ccn(-c2cnn(C)c(=O)c2O)c(=O)c1 | 5 (5=80-100% damage)

Query :: Returns the measured POST Application SETFA herbicidal damage (five point scale) for the input compound. Input: "Cn1ncc(-n2ccc(C(F)(F)F)c(-c3cccc(C(F)(F)F)c3)c2=O)c(O)c1=O"
Result :: 5 (5=80-100% damage)

Query :: I am curious: what POST Application SETFA herbicidal damage (five point scale) value has been reported for "COCn1ncc(-c2ccc(F)cc2S(C)(=O)=O)c(O)c1=O" ?
Result :: 5 (5=80-100% damage)

Query :: Item "Cn1ncc(-n2ccc(C(F)(F)F)c(-c3cccc(Cl)c3)c2=O)c(O)c1=O" has what recorded POST Application SETFA herbicidal damage (five point scale)?
Result :: 4 (4=60-79% damage)
